Quick reference: TGI of the listed items.
Test system: NCI-H226 lung
procedure-details: NCI tumour cell line growth inhibition, 48 h
measurement-kind: TGI

1) CC(/C=C/C(O)=C1/C(=O)CNC1=O)=C\[C@@H](C)[C@H]1O[C@@]2(C)O[C@H](C(=O)[C@@H]3O[C@@]32C)[C@@H]1C : 54.4 µM
2) CCOC(=O)c1cn2c(n1)sc1cc(OC)ccc12 : 98.2 µM
3) COc1ccc2c(c1)CN([C@@H](C)[C@H]1CC[C@H]3[C@@H]4CC[C@H]5C[C@@H](O)CC[C@]5(C)[C@H]4CC[C@]13C)CO2 : 24.3 µM
4) O=C1NC(Nc2ccccc2)=N/C1=C\c1c(Cl)cccc1Cl : 41.6 µM
5) C1=Cc2nc1c(-c1ccccc1)c1ccc([nH]1)c(-c1ccccc1)c1nc(c(-c3ccccc3)c3ccc([nH]3)c2-c2ccccc2)C=C1 : > 100 µM
6) COc1ccc(-c2cnnn2-c2nonc2-n2cccc2)cc1OC : > 100 µM
7) COc1ccc(-c2nc(-c3nc4cc(Cl)c(F)cc4[nH]3)c3ccccn23)cc1 : > 100 µM
8) COc1ccc(-c2c(C#N)c(N)nc(N3CCOCC3)c2C#N)cc1 : > 100 µM
9) COc1ccc(-c2oc3cc(OC)c(OC)c(O)c3c(=O)c2OC)cc1 : > 100 µM
10) COc1cc(-c2ccc(N=Nc3ccc4c(S(=O)(=O)O)cc(S(=O)(=O)O)c(N)c4c3O)c(OC)c2)ccc1N=Nc1ccc2c(S(=O)(=O)O)cc(S(=O)(=O)O)c(N)c2c1O : > 100 µM
11) Cc1cc(CCl)c(C)cc1CCl : 16 µM
12) Cc1cc(NCc2cc(Nc3ccnc4cc(Cl)ccc34)ccc2F)nc(N2CCOCC2)n1 : 5.61 µM
13) O=C(Nc1cccc2[nH]c(C(F)(F)F)nc12)c1cc(Cl)ccc1Cl : 25.5 µM
14) c1ccc2c(c1)NCc1cc3ccccc3nc1O2 : > 100 µM
15) CN(C)C(=S)/N=c1\ssc(=S)n1C : > 100 µM
16) COc1ccc(/C=C2\CCC(CCN(C)C)(C3=CCCC3)C2=O)cc1 (configuration not stated) : 38.5 µM
17) CCOC(=O)c1sc2c(c1OC(=O)c1cc(OC)c(OC)c(OC)c1)c(=O)n(-c1ccccc1)c(=S)n2-c1ccccc1 : > 100 µM
18) Nc1nc(N)c2cc(Sc3ccc4ccccc4c3)ccc2n1 : 18.1 µM
19) CCOc1cccc2c1N[S@@](=O)S2 : > 100 µM
20) O=[N+]([O-])c1cc([As](Br)c2ccc(O)c([N+](=O)[O-])c2)ccc1O : 3.21 µM
21) COc1ccc(C(=O)c2sc3nc(-c4ccccc4OC)ccc3c2N)cc1OC : > 100 µM
22) CC12CC(=O)Nc3ccccc3N1C(c1ccccc1)=NO2 (configuration not stated) : > 100 µM
23) COc1ccc2c(O)c(S(=O)(=O)c3ccc(C)cc3)c(=O)oc2c1OC : > 100 µM
24) O=C1CCC2(c3ccccc3)Nc3ccccc3N12 (configuration not stated) : > 100 µM
25) CCn1cc(/C=C2\Oc3cc(OCC#N)ccc3C2=O)c2cc(OC)ccc21 : > 44.3 µM
26) CC(=O)OC(C(=O)[O][Sn]([CH3])([CH3])[CH3])c1ccccc1 (configuration not stated) : > 100 µM
27) Nc1c(C(=O)c2cccc(C#CCN3CCCCC3)c2)cnn1-c1ccc(F)cc1 : > 25 µM
28) O=C1CCC[C@H]2O[C@@H](COC(=O)c3ccccc3)C[C@H]2O1 : > 100 µM
29) Clc1ccc(-c2cc(-c3cc4cc(Br)ccc4nc3Cl)on2)cc1 : 27.4 µM
30) CCC(C)C(N)C(=O)N/N=C\c1c2c(nc3ccccc13)-c1cc3c(c(=O)n1C2)COC(=O)[C@]3(O)CC (some centres not stated) : 1.66 µM
31) O=C(Cn1cc(Br)c(=O)[nH]c1=O)c1ccc(-c2ccccc2)cc1 : > 100 µM
32) CO/N=C\c1ccc2c(c1)Sc1ccccc1O2 : > 100 µM
33) CC(NC(=O)Cc1ccc(C(F)(F)P(=O)(OCc2ccc([N+](=O)[O-])o2)N(C)CCCCCl)cc1)c1ccc(OCC2CCCCC2)c(C(N)=O)c1 (configuration not stated) : 15.1 µM
34) Cc1cccc2[nH]c3c(c(O)cc4[nH]c5cccc(C)c5c(=O)c43)c(=O)c12 : > 10 µM
35) CC1CC2(S(=O)(=O)c3ccccc3)ON1CC2S(=O)(=O)c1ccccc1 (configuration not stated) : > 100 µM
36) N=c1c2ccccc2sc2nc3ccccc3n12 : > 100 µM
37) CC(C)(C)OC(=O)N1NC(c2ccccc2)CC1c1ccccc1 (configuration not stated) : 88.2 µM

----------
TGI values, listed per item
Test system: SN12C renal
procedure-details: NCI tumour cell line growth inhibition, 48 h
measurement-kind: TGI

1. c1ccc2c(c1)NCc1cc3ccccc3nc1O2 : > 100 µM
2. COc1cc(-c2ccc(N=Nc3ccc4c(S(=O)(=O)O)cc(S(=O)(=O)O)c(N)c4c3O)c(OC)c2)ccc1N=Nc1ccc2c(S(=O)(=O)O)cc(S(=O)(=O)O)c(N)c2c1O : > 100 µM
3. O=C1/C(=C\c2ccco2)Oc2ccccc21 : > 100 µM
4. CCOC(=O)c1cn2c(n1)sc1cc(OC)ccc12 : > 100 µM
5. CC[C@@H](CCCCC1CC[C@H]2CC(=O)C[C@@H]12)OC (stereo partly specified) : > 100 µM
6. CCOC(=O)NC(Nc1cc(Cl)ccc1OC)(C(F)(F)F)C(F)(F)F : > 100 µM
7. CN(C)CCCOc1cccc(NC2=C(Cl)C(=O)C(Nc3cccc(OCCCN(C)C)c3)=C(Cl)C2=O)c1 : 0.865 µM
8. C[N+](C)(C)CC1CCCCC1=O (stereo unspecified) : > 100 µM
9. CC12CC(=O)Nc3ccccc3N1C(c1ccccc1)=NO2 (stereo unspecified) : > 100 µM
10. COc1ccc2c(c1)C(=O)/C(=C/c1cccc(OCC(=O)Nc3nc(C)c(C)s3)c1)O2 : 2.66 µM
11. COc1ccc(/C=C2/C(=O)N(C(=O)c3ccccc3O)N=C2C)cc1 : > 32 µM
12. CCN1[C@@H](C(=O)NC23CCC(C(=O)O)(CC2)CC3)[C@H](c2cccc(Cl)c2F)[C@]2(C(=O)Nc3cc(Cl)ccc32)C12CCCCC2 : 19.4 µM
13. COc1cc([C@@H]2c3cc4c(cc3[C@H](OC(C)=O)[C@H]3COC(=O)[C@@H]23)OCO4)cc(OC)c1OC : > 100 µM
14. CC(Oc1ccc(Oc2cnc3ccc(Cl)cc3n2)cc1)C(=O)O (stereo unspecified) : > 100 µM
15. O=C1c2cccnc2-c2nc(-c3cccnc3)cc3c2c1nc1ccccc13 : 5.02 µM
16. CC1(C)OC(=S)N(c2ccccc2)C12C=Cc1cc3ccccc3nc1S2 (stereo unspecified) : > 100 µM
17. c1ccc2c(c1)c1ccccc1n2Cn1c2ccccc2c2ccccc21 : > 100 µM
18. CCOC(=O)c1sc2c(c1OC(=O)c1cc(OC)c(OC)c(OC)c1)c(=O)n(-c1ccccc1)c(=S)n2-c1ccccc1 : > 100 µM
19. CC(C)(C)NCC(O)COc1c(Br)c(Br)c(Br)c2c1OC(C)(C)C2 (stereo unspecified) : 3.43 µM
20. Nc1c(C(=O)c2cccc(C#CCN3CCCCC3)c2)cnn1-c1ccc(F)cc1 : > 25 µM
21. CCC(=O)N/S(=N/S(=O)(=O)c1ccccc1)C(Cl)(Cl)Cl (stereo unspecified) : > 100 µM
22. COc1cc(OCc2cccc(-c3ccccc3)c2C)cc(OC)c1CN1CCCCC1C(=O)NCCOCCOCCN (stereo unspecified) : 7.01 µM
23. C=C1C(=O)O[C@H]2[C@H]1CC/C(Cn1cc(-c3ccc(N)cc3)nn1)=C\CC[C@@]1(C)O[C@@H]21 : 15.1 µM
24. Oc1ccc(/C=C/c2cccc(/C=C/c3ccc(O)c(O)c3)n2)cc1O : 27.5 µM
25. CC(=O)C(C(=O)c1ccc(C)cc1)[C@H]1OC(C)(C)O[C@H]1[C@H]1COC(C)(C)O1 (stereo partly specified) : 6.39 µM
26. CC(=O)O[C@H]1CC[C@@]2(C)C(=CC[C@@H]3[C@@H]2CC[C@]2(C)c4c(n[nH]c4C)C[C@@H]32)C1 : 45.5 µM

----------
Listed below: TGI values for each entry.
Test system: SR leukemia
procedure-details: NCI tumour cell line growth inhibition, 48 h
measurement-kind: TGI

1. N=c1oc2ccccc2cc1-c1nc2ccccc2[nH]1 : > 100 µM
2. CCC(=O)N/S(=N/S(=O)(=O)c1ccccc1)C(Cl)(Cl)Cl (stereo not given) : > 100 µM
3. CCOC(=O)C1Cc2ccc3c4c(ccc(c24)C1)CC(C(=O)OCC)C3 : > 100 µM
4. COc1ccc(Nc2nc(Nc3cc(C)[nH]n3)c3cc(OC)c(OC)cc3n2)cc1 : > 100 µM
5. O=c1[nH]ncc2[nH]c3c4ccccc4ccc3c12 : > 100 µM
6. O=C1NC(Nc2ccccc2)=N/C1=C\c1c(Cl)cccc1Cl : > 100 µM
7. COc1cc(/C=C2\C[C@H]3[C@@H]4CCC5=CC(=O)CC[C@]5(C)[C@H]4CC[C@]3(C)C2=O)cc(OC)c1OC : > 100 µM
8. N#Cc1c(=O)c2ccccc2n2ccccc12 : > 100 µM
9. O=c1nc2ccc([N+](=O)[O-])cc2[n+]([O-])[nH]1 : > 100 µM
10. COc1ccc(/C=C2/C(=O)N(C(=O)c3ccccc3O)N=C2C)cc1 : > 100 µM
11. CC(=O)C(C(=O)c1ccc(C)cc1)[C@H]1OC(C)(C)O[C@H]1[C@H]1COC(C)(C)O1 (stereo not given in full) : > 50 µM
12. CCSc1ccc([C@@H]2[C@@H](O)C(=O)N2c2cc(OC)c(OC)c(OC)c2)cc1 : 17.4 µM
13. CC(=O)C(C)C(=O)N1C(=O)N(C)C2(C)N(C)C(=O)NC12C (stereo not given) : > 100 µM
14. CCCC(=O)N[C@H]1CCc2cc(OC)c(OC)c(OC)c2-c2ccc(SC)c(=O)cc21 : > 100 µM
15. N#Cc1c2ccc([N+](=O)[O-])cc2c(=O)n2c1[nH]c1ccc(C(F)(F)F)cc12 : > 25.7 µM
16. CC(C)(C)C(=O)Oc1ccc(/C=C/C(=O)c2ccc(OC(=O)C(C)(C)C)cc2)cc1 : 76.4 µM
17. Oc1[nH]c2ccccc2c1C1=Nc2ccccc2/C1=N\OCCOC1OCC(O)C(O)C1O (stereo not given) : > 100 µM
18. O=C1/C(=C\c2ccco2)Oc2ccccc21 : > 100 µM
19. CCc1ccc2[nH]c(O)c(C3=Nc4ccccc4C3=O)c2c1 : 37.8 µM
20. CC12CCCCC1=C(F)C(F)(F)S2 (stereo not given) : 28 µM
21. Cn1cc(-c2cc(-c3cn(C)c4ccc(Cl)cc34)[nH]n2)c2cc(Cl)ccc21 : 7.71 µM
22. O=C(Nc1cccc(F)c1)c1cc2ccc(O)cc2oc1=Nc1cccc(F)c1 : > 100 µM
23. Cc1ccc(-c2c(-c3ccccc3)[nH]c(C)c2C(=O)ONC(=O)c2ccccc2)cc1 : 5.36 µM
24. COC(=O)C1Cc2c(OC)ccc(OC)c2C(O)C1C(=O)OC (stereo not given) : > 100 µM
25. Cc1cn(-c2cccc(NC(=O)c3ccc(C)c(Nc4nccc(-c5cccnc5)n4)c3)c2)cn1 : 5.02 µM
